Hello, the source for this data is the RNAGym collection of RNA variant scans (doi:10.1073/pnas.2313332121), in case you need it.

B1: TPR t1 (parent)
chain: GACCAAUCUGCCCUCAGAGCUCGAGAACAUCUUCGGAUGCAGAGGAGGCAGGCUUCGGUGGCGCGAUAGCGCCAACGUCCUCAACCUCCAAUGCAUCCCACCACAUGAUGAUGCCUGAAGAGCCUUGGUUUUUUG

Variants of: B1
Test: polymerase ribozyme fitness, log enrichment relative to wild type (log ratio); higher = more active; in vitro selection for triplet polymerase activity
quantity_kind: polymerase ribozyme fitness (log ratio)
Lab note: record the figure alone, no unit after it.

Returns the measured polymerase ribozyme fitness (log ratio) for the input variant. Input: GACCAAUCUGCCCUCAGAGCUCGAGAACAUCUUCGGAUGCAGAGGAGGCAGGCUUGGGUGGCGCGAUAGCGCCAACGUCCUCAACCUCCAAUGCAUCCCACCACAUGAUGAUGCCUGAAGAGCCUUUGUUUUUUG
-1.1

Returns the measured polymerase ribozyme fitness (log ratio) for the input variant. Input: GACCAAUCUACCUUCAGAGCUCGAGAACAUCUUCGGAUGCAGAGGAGGCAGGCUUCGGUGGCGCGAUAGCGCCAACGUCCUCAACGUCCAAUGCAUCCCACCACAUGAUGAUGCCUGAAGAGCCUUGGUUUUUUG
-0.113

Returns the measured polymerase ribozyme fitness (log ratio) for the input variant. Input: GACCGAUCUGCCCUCAGAGCUCGAGAACAUCUUCGGAUGCAGAGGAGGCAGGCUUCGGUGGCGCGAUAGCGCCAACGUCCUCAACCCCCAAUGCAUCCCACCACAUGAUGAUGCCUGAAGAGCCUUGGUUUUUUG
-0.474

Returns the measured polymerase ribozyme fitness (log ratio) for the input variant. Input: GACCAAUCUGCCCUCAGAGCUCGAGAACAUCUUCGGAUGCAGAGGAGGCGGGCUUCGGUGGCUCGGUAGCGCCAACGUCCUCAACCUCCAAUGCAUCCCACCACAUGAUGAUGCCUGAAGAGCCUUGGUAUUUUG
-4.03

Returns the measured polymerase ribozyme fitness (log ratio) for the input variant. Input: GACCAAUCUGCCCUCAGAGCUCGAGUACAUCUUCGGAUGCAGAGGAGGCAGGCUUCGGUGGCGCGAUAGCGGCAACGUCCUCAACCUCCAAUGCAUGCCACCACAUGAUGAUGCCUUAAGAGCCAUGGUUUUUUG
-6.79

Returns the measured polymerase ribozyme fitness (log ratio) for the input variant. Input: GACCAAUCUGCCCUCAGAGCUCGAGAACAUCUUCGGAUGCAGAGGAGGCAGGCUUCGGUGGCGCGAUAGCUCCAACGUCCUCAACCUCCAAUGCAUCCCACCACAUGAUGAUGCCUGAAGAGCCUUUGUUUUUUG
-1.02

Returns the measured polymerase ribozyme fitness (log ratio) for the input variant. Input: GACCAAUCUGUCCUCAGAGCUCGAGAACAUCUUCGGAUGCAGAGGAGGCAGGCUUCGGUGGCGCGAUAGCGCCAACGUCCUCAACCUCCAAUGCAUCCCACCACAUGAUGAUGCCUGAAGAGUCUUGGUUUUUUG
1.77

Returns the measured polymerase ribozyme fitness (log ratio) for the input variant. Input: GACCAAUCUGCCCUCAGAGCUCGAGAACAUCUUCGGAUGCAGACGAGGCAGGCUACGGUGGCGCGAUAGGGCCAACGUCCUCAACCUCCAAUGCAUCCCACCACAUGAUGAUGCCUGAAGAGCCUGGGUUUUUUG
-5.73

Returns the measured polymerase ribozyme fitness (log ratio) for the input variant. Input: GACCAAUCUGCCCUCAGAGCUCGAGAACAUCUUCGGAUGCAUAGGAGGCAGGCUUCGGUGGCGCGAUAGCUCCAACGUCCUCAACCUCCAAUGCAUCCCACCACAUGAUGAUGCCUGAAGAGCCUUGGUUUUUUG
-2.08

Returns the measured polymerase ribozyme fitness (log ratio) for the input variant. Input: GACCAAUCUGCCCUCAUAGCACGAGAACAUCUUCGGAUGCAGAGGAGGCAGGCUUCGGUGGCGCGAUAGCGCCAACGUCCUCAACCUCCAAUGCAUCCCACCACAUGAUGACGCCUGAAGAGACUUGGUUUUUUG
-3.07

Returns the measured polymerase ribozyme fitness (log ratio) for the input variant. Input: GACCAACCUGCCCUCAGAGCUCGAGAACAUCUUCGGAUGCAGAGGAGGCAGGCUUCGGUGGCGCGAUAGCGCCAACGUCCUCAACCUCCAAUGCACCCCACAACAUGUUGAUGUCUGAAGAGCCUUGGUUUUUUG
-5.22
